What follows is a collection of IC50 values obtained with Beta-adrenergic receptor kinase 1 (Bos taurus).
Sequence (P21146 whole entry): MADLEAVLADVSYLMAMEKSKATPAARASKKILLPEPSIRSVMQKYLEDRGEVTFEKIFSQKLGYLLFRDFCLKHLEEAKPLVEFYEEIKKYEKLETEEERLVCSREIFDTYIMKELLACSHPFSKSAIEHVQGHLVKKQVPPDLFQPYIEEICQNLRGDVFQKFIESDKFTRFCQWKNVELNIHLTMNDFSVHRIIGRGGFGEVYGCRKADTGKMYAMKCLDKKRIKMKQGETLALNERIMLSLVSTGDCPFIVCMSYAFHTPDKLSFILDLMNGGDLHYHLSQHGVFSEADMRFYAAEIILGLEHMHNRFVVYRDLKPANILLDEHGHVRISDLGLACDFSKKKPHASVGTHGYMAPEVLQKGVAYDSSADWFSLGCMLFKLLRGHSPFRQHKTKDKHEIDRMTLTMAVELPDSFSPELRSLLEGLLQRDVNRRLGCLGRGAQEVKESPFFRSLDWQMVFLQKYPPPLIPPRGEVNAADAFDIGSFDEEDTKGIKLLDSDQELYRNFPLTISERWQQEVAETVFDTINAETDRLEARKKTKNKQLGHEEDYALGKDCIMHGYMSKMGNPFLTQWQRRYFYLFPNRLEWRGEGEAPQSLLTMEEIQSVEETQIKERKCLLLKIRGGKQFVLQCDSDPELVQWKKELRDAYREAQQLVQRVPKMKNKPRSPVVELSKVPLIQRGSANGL
Give bare numbers, in µM.

The cases that follow already have their IC50 on record.
Cc1[nH]c(/C=C2\C(=O)Nc3ccc(C(=O)N[C@H](C)c4ccc(F)cc4)cc32)c(C)c1NC(=O)[C@H](C)O ... 100
Cc1[nH]c(/C=C2\C(=O)Nc3ccc(C(=O)NCc4ccc(F)cc4)cc32)c(C)c1NC(=O)[C@@H](O)c1ccco1 ... 2.2

Moving on to another compound below.
Request: IC50 for Cc1[nH]c(/C=C2\C(=O)Nc3ccc(C(=O)NCc4ccc(F)cc4)cc32)c(C)c1NC(=O)[C@H](O)c1ccccc1 ?
Response: 30
